- Experimental System: AgSho1
- Method Notes: SPOT peptide array binding signal intensity (averaged, normalized) (arbitrary units (background-subtracted, floor 0; scale differs between SH3 domains)); higher = stronger binding of the SH3 domain to the peptide
Parameter Measured: SPOT peptide array binding signal intensity
The answer should be a number; do not append a unit.

Example entries and their recorded answers appear below.
QQNRPLPQLPNRNNR
2750
PLQSKIPMLPSRRTM
131
LYEAMPPTLPHRDWK
26.5

Identify measured SPOT peptide array binding signal intensity associated with KRKRRLPVSEDTNTK
53

Provide measured SPOT peptide array binding signal intensity value, entry: RLSRLLLSLPPESFT
70

Name the recorded SPOT peptide array binding signal intensity of the item LKHGWKPLRPIKLIS in your answer.
32
